Value source: patent US20220177587A1

# tested_target: CD28 (human) (UniProt P10747)
# method_summary: flow cytometry, Jurkat cells (CD28)

>  <binder>
variant CD80 IgV-Fc H18Y/M47L/V68M/D90G (Fc fusion) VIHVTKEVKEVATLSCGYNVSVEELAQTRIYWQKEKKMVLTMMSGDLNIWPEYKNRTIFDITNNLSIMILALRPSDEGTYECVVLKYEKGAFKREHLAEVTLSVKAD

>  <MFI at 33.3 nM>
3800 MFI

$$$$
>  <binder>
variant CD80 IgV-Fc (inert) H18V/A26Q/E35D/M47V/V68L/A71G/D90G (Fc fusion) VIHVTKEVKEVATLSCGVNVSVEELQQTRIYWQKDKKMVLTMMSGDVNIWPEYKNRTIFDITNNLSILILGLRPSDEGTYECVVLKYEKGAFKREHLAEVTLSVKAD

>  <MFI at 33.3 nM>
3130 MFI

$$$$
>  <binder>
variant CD80 IgV-Fc A26E/E35D/V68M/D90G (Fc fusion) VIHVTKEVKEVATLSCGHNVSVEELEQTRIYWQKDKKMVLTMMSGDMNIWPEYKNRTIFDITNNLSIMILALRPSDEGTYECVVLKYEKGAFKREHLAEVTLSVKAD

>  <MFI at 33.3 nM>
1680 MFI

$$$$
>  <binder>
variant CD80 IgV-Fc (inert) H18Y/A26P/E35D/M47V/V68M/A71G (Fc fusion) VIHVTKEVKEVATLSCGYNVSVEELPQTRIYWQKDKKMVLTMMSGDVNIWPEYKNRTIFDITNNLSIMILGLRPSDEGTYECVVLKYEKDAFKREHLAEVTLSVKAD

>  <MFI at 33.3 nM>
6910 MFI

$$$$
>  <binder>
variant CD80 IgV-Fc (inert) H18I/A26P/E35D/M47V/V68M/A71G (Fc fusion) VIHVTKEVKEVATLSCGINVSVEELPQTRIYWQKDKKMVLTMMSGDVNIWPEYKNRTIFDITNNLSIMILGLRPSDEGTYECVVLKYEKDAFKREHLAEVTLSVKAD

>  <MFI at 33.3 nM>
2570 MFI

$$$$
>  <binder>
variant CD80 IgV-Fc A26E/E35D/M47L/D90G (Fc fusion) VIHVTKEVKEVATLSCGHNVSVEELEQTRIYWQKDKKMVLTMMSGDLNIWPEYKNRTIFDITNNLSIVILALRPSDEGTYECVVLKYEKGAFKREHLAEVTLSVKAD

>  <MFI at 33.3 nM>
1550 MFI

$$$$
>  <binder>
CD80 T13R/Q33R/E35D/M47L/V68M/L85M IgV-Fc (Fc fusion) VIHVTKEVKEVARLSCGHNVSVEELAQTRIYWRKDKKMVLTMMSGDLNIWPEYKNRTIFDITNNLSIMILALRPSDEGTYECVVMKYEKDAFKREHLAEVTLSVKAD

>  <MFI at 33.3 nM>
112 MFI

$$$$
>  <binder>
CD80 E35D/M47V/N48K/V68M/A71G/L85M IgV-Fc (Fc fusion) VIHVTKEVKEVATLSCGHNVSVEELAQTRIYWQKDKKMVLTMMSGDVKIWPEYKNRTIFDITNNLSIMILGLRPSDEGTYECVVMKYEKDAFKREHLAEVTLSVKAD

>  <MFI at 33.3 nM>
302 MFI

$$$$
